measured_target: human ether-à-go-go-related gene (hERG) potassium channel (human, UniProt Q12809);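 also: peak tail current of the secondary pulse compared with the same well before compound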
Sequence (Q12809 whole entry, looked up): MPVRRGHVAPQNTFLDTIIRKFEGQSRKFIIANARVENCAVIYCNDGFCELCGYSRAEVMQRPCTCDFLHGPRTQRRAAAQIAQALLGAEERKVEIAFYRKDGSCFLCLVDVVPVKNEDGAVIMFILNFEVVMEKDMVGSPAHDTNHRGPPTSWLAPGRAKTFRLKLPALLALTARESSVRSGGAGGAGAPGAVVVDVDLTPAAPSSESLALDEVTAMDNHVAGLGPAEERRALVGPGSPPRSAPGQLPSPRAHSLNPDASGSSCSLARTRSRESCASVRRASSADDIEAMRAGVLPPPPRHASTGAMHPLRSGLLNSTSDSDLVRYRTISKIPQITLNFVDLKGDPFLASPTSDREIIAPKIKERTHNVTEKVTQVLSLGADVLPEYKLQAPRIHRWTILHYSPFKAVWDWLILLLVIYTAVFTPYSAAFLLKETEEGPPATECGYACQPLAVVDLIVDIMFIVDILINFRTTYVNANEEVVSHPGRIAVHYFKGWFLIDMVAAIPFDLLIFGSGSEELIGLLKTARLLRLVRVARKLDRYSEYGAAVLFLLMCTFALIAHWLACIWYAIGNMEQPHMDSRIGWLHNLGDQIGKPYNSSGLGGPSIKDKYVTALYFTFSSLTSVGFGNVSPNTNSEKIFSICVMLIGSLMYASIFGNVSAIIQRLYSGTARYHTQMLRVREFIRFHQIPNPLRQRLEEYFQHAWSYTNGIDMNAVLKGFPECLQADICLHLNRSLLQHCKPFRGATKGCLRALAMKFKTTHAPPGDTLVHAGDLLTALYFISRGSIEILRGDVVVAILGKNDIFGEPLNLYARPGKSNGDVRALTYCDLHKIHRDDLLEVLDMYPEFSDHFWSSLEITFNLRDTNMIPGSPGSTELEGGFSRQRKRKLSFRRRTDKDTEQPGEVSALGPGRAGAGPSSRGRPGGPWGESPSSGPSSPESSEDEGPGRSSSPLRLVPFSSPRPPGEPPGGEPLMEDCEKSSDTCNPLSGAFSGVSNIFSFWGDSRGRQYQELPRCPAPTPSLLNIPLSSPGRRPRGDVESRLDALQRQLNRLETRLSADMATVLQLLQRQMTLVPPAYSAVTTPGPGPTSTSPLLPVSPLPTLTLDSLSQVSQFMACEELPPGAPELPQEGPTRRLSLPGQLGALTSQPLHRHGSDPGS
measurement_description: primary screen, population patch clamp on CHO cells stably expressing hERG; higher = less effect of the substance
Among all 310,000 compounds or so, about 14,000 (4.5%) showed an effect of 50% or more. Effects have a minus sign here. This excerpt belongs to a sample that is enriched for strong results.
Cut-off -20% on hERG current change (%, negative = inhibition) at 10uM, inclusive. At or above means yes; below means no.

compound: O=C(CSc1nc(=O)n2ccccc2n1)N1N=C(c2cccs2)CC1c1ccc(F)cc1 (stereo not drawn)
answer_label: no

Task item: I'd appreciate it if you could say whether COc1ccc(NC(=O)CSCC(=O)N2CCN(C(=O)c3ccco3)CC2)cc1 has hERG current change (%, negative = inhibition) at 10uM at least equal to -20%.
Reply: no

Task item: I'd appreciate it if you could say whether O=C(O)c1ccccc1OC(C(=O)Nc1cc(Cl)cc(Cl)c1)c1ccccc1 (stereo not drawn) has hERG current change (%, negative = inhibition) at 10uM at least equal to -20%.
Reply: yes

Task item: I'd appreciate it if you could say whether Nc1c(C(=O)OC2CCCCC2)c2nc3ccccc3nc2n1CC1CCCO1 (stereo not drawn) has hERG current change (%, negative = inhibition) at 10uM at least equal to -20%.
Reply: no

Task item: I'd appreciate it if you could say whether C/C=C/c1cc(CN2CCN(c3ccccc3)CC2)c(O)c(OC)c1 has hERG current change (%, negative = inhibition) at 10uM at least equal to -20%.
Reply: no

Task item: I'd appreciate it if you could say whether Cc1ccc(NC(=O)CSCC(=O)N2CCN(C(=O)c3ccco3)CC2)cc1 has hERG current change (%, negative = inhibition) at 10uM at least equal to -20%.
Reply: no

Task item: I'd appreciate it if you could say whether Cc1cc2nnc(SCC(=O)NCc3cccs3)n2c(N)n1 has hERG current change (%, negative = inhibition) at 10uM at least equal to -20%.
Reply: yes

Task item: I'd appreciate it if you could say whether O=c1cc2c(nn1Cc1ccc(F)cc1)-c1ccccc1CC2 has hERG current change (%, negative = inhibition) at 10uM at least equal to -20%.
Reply: no

Task item: I'd appreciate it if you could say whether COc1cccc(C(=O)O/N=C(\N)c2ccccn2)c1 has hERG current change (%, negative = inhibition) at 10uM at least equal to -20%.
Reply: yes

Task item: I'd appreciate it if you could say whether CCN1CCCC1CNC(=O)C(=O)Nc1ccccc1OC (stereo not drawn) has hERG current change (%, negative = inhibition) at 10uM at least equal to -20%.
Reply: yes

Task item: I'd appreciate it if you could say whether CC1CN(c2ccc([N+](=O)[O-])cc2Cl)CCN1S(C)(=O)=O (stereo not drawn) has hERG current change (%, negative = inhibition) at 10uM at least equal to -20%.
Reply: no

Task item: I'd appreciate it if you could say whether Cc1cccc(NC(=O)CSCC(=O)N2CCN(C(=O)c3ccco3)CC2)c1 has hERG current change (%, negative = inhibition) at 10uM at least equal to -20%.
Reply: no

Task item: I'd appreciate it if you could say whether COc1ccc(/C=N\NC(=O)c2ccccc2F)cc1COc1ccc(F)cc1 has hERG current change (%, negative = inhibition) at 10uM at least equal to -20%.
Reply: yes

This collection of values is drawn from paper PMC4336329.
